src = patent US11951214B2

experiment: pH solubility profile of Compound 1 in buffers, water, HCl and biorelevant media; format: physicochemical; conditions: aqueous buffer; pH 5 Buffer, actual pH 5.00
quantity_kind: solubility (µg/mL)
Answers are plain numbers, in µg/mL.

Query :: Entry "Cc1ccc(NC(=O)[C@H]2CCCN(C(=O)c3c(C)cccc3F)[C@H]2c2ccc(NC3CCCC3)cc2)cc1C(F)(F)F" : reported solubility = ?
Result :: 0.021

---

test: pH solubility profile of Compound 1 in buffers, water, HCl and biorelevant media; type: physicochemical; settings: aqueous buffer; pH 10 Buffer, actual pH 9.95
quantity_kind: solubility (µg/mL)
Answers are plain numbers, in µg/mL.

Query :: Entry Cc1ccc(NC(=O)[C@H]2CCCN(C(=O)c3c(C)cccc3F)[C@H]2c2ccc(NC3CCCC3)cc2)cc1C(F)(F)F [Compound 1] : reported solubility = ?
Result :: 0.03

---

assay: Pharmacokinetics of solid solution capsules in dogs; settings: male, beagle, dog, in vivo, po, 20 mg, PO 20 mg/dog, capsule in 100% macrogol-40-glycerol hydroxystearate, trial T1
quantity_kind: Cmax (ng/mL)
Answers are plain numbers, in ng/mL.

Query :: Entry Cc1ccc(NC(=O)[C@H]2CCCN(C(=O)c3c(C)cccc3F)[C@H]2c2ccc(NC3CCCC3)cc2)cc1C(F)(F)F [Compound 1] : reported Cmax = ?
Result :: 590

---

assay: Solubility of Compound 1 in alternative excipients/solvents (liquid formulations, cranberry juice dilution); assay type: physicochemical; settings: Captisol in water (40% w/v), aqueous with cosolvent or surfactant or cyclodextrin, thermodynamic from solid, Captisol in water (40% w/v); read-out: Solubility
quantity_kind: solubility (µg/mL)
Answers are plain numbers, in µg/mL.

Query :: Entry Cc1ccc(NC(=O)[C@H]2CCCN(C(=O)c3c(C)cccc3F)[C@H]2c2ccc(NC3CCCC3)cc2)cc1C(F)(F)F [Compound 1] : reported solubility = ?
Result :: 10

---

assay: Pharmacokinetics of solid solution capsule in patients with ANCA associated vasculitis; type: in vivo, Humans; conditions: human, in vivo, po, AAV patients, 30 mg twice daily oral, 50:50 solid solution capsules; Compound 1 + Low Dose Prednisone; read-out: Day 1 Tmax, Mean
quantity_kind: Tmax (h)
Numbers only, in h.

Query :: Entry "Cc1ccc(NC(=O)[C@H]2CCCN(C(=O)c3c(C)cccc3F)[C@H]2c2ccc(NC3CCCC3)cc2)cc1C(F)(F)F" : reported Tmax = ?
Result :: 2.35

---

assay: Pharmacokinetics of solid solution capsules in dogs; settings: male, beagle, dog, in vivo, po, 20 mg, PO 20 mg/dog, capsule in 50:50 macrogol-40-glycerol hydroxystearate:PEG-4000, trial T2
quantity_kind: Cmax (ng/mL)
Numbers only, in ng/mL.

Query :: Entry "Cc1ccc(NC(=O)[C@H]2CCCN(C(=O)c3c(C)cccc3F)[C@H]2c2ccc(NC3CCCC3)cc2)cc1C(F)(F)F" : reported Cmax = ?
Result :: 396

---

assay: Pharmacokinetics of solid solution capsules in dogs; details: male, beagle, dog, in vivo, po, 20 mg, PO 20 mg/dog, capsule in 50:50 macrogol-40-glycerol hydroxystearate:PEG-4000, trial T3
quantity_kind: AUC(0-t) (ng·h/mL)
One number for each entry, in ng·h/mL.

Query :: Entry Cc1ccc(NC(=O)[C@H]2CCCN(C(=O)c3c(C)cccc3F)[C@H]2c2ccc(NC3CCCC3)cc2)cc1C(F)(F)F [Compound 1] : reported AUC(0-t) = ?
Result :: 2080

---

Assay: Pharmacokinetics of solid solution capsules in dogs
Details: male, beagle, dog, in vivo, po, 20 mg, PO 20 mg/dog, capsule in 50:50 macrogol-40-glycerol hydroxystearate:PEG-4000, trial T1
Protocol: Solid Solution capsules of Compound 1 comprising 50:50 macrogol-40-glycerol hydroxystearate:PEG-4000 or 100% macrogol-40-glycerol hydroxystearate were prepared using the general procedures described in Example 4. The PEG heating steps were omitted for the 100% macrogol-40 glycerol hydroxystearate formulations. These formulations were dosed in beagle dogs (male) at 20 mg per dog to evaluate the pharmacokinetic profile. […]
quantity_kind: Cmax (ng/mL)
Give bare numbers, in ng/mL.

Query :: Entry Cc1ccc(NC(=O)[C@H]2CCCN(C(=O)c3c(C)cccc3F)[C@H]2c2ccc(NC3CCCC3)cc2)cc1C(F)(F)F [Compound 1] : reported Cmax = ?
Result :: 411

---

test: Pharmacokinetics of solid solution capsules in dogs; conditions: male, beagle, dog, in vivo, po, 20 mg, PO 20 mg/dog, capsule in 50:50 macrogol-40-glycerol hydroxystearate:PEG-4000, Average of T1-T3
quantity_kind: MRT
Show the value, then the unit it is measured in.

Query :: Entry "Cc1ccc(NC(=O)[C@H]2CCCN(C(=O)c3c(C)cccc3F)[C@H]2c2ccc(NC3CCCC3)cc2)cc1C(F)(F)F" : reported MRT = ?
Result :: 4.7 h

---

experiment: Solubility of Compound 1 in alternative excipients/solvents (liquid formulations, cranberry juice dilution); format: physicochemical; details: PEG400/EtOH/Transcutol P (50/45/5 v/v), organic solvent or mixture, PEG400/EtOH/Transcutol P (50/45/5 v/v); visually, against 30 mg/mL control solution; read-out: Solubility
quantity_kind: solubility

Query :: Entry "Cc1ccc(NC(=O)[C@H]2CCCN(C(=O)c3c(C)cccc3F)[C@H]2c2ccc(NC3CCCC3)cc2)cc1C(F)(F)F" : reported solubility = ?
Result :: ~30 mg/mL

---

experiment: Pharmacokinetics of solid solution capsules in dogs; details: male, beagle, dog, in vivo, po, 20 mg, PO 20 mg/dog, capsule in 50:50 macrogol-40-glycerol hydroxystearate:PEG-4000, trial T2
quantity_kind: Tmax

Query :: Entry "Cc1ccc(NC(=O)[C@H]2CCCN(C(=O)c3c(C)cccc3F)[C@H]2c2ccc(NC3CCCC3)cc2)cc1C(F)(F)F" : reported Tmax = ?
Result :: 1 h

---

assay: Solubility of Compound 1 in alternative excipients/solvents (liquid formulations, cranberry juice dilution); assay type: physicochemical; settings: PEG400/EtOH/Solutol HS 15 (70/20/10 v/v), organic solvent or mixture, PEG400/EtOH/Solutol HS 15 (70/20/10 v/v); read-out: Solubility
quantity_kind: solubility

Query :: Entry "Cc1ccc(NC(=O)[C@H]2CCCN(C(=O)c3c(C)cccc3F)[C@H]2c2ccc(NC3CCCC3)cc2)cc1C(F)(F)F" : reported solubility = ?
Result :: 20.4 mg/mL

---

Assay: Pharmacokinetics of solid solution capsules in dogs
Conditions: male, beagle, dog, in vivo, po, 20 mg, PO 20 mg/dog, capsule in 100% macrogol-40-glycerol hydroxystearate, trial T3
Protocol: Solid Solution capsules of Compound 1 comprising 50:50 macrogol-40-glycerol hydroxystearate:PEG-4000 or 100% macrogol-40-glycerol hydroxystearate were prepared using the general procedures described in Example 4. The PEG heating steps were omitted for the 100% macrogol-40 glycerol hydroxystearate formulations. These formulations were dosed in beagle dogs (male) at 20 mg per dog to evaluate the pharmacokinetic profile. […]
quantity_kind: Tmax (h)
Give bare numbers, in h.

Query :: Entry "Cc1ccc(NC(=O)[C@H]2CCCN(C(=O)c3c(C)cccc3F)[C@H]2c2ccc(NC3CCCC3)cc2)cc1C(F)(F)F" : reported Tmax = ?
Result :: 1

---

test: Pharmacokinetics of solid solution capsules in dogs; conditions: male, beagle, dog, in vivo, po, 20 mg, PO 20 mg/dog, capsule in 50:50 macrogol-40-glycerol hydroxystearate:PEG-4000, trial T1
quantity_kind: AUC(0-inf) (ng·h/mL)
Numbers only, in ng·h/mL.

Query :: Entry "Cc1ccc(NC(=O)[C@H]2CCCN(C(=O)c3c(C)cccc3F)[C@H]2c2ccc(NC3CCCC3)cc2)cc1C(F)(F)F" : reported AUC(0-inf) = ?
Result :: 1310

---

assay: pH solubility profile of Compound 1 in buffers, water, HCl and biorelevant media; assay type: physicochemical; details: Fasted-State Simulated Intestinal Fluid (FaSSIF); FaSSIF, pH 6.5, actual pH 6.47
quantity_kind: solubility (µg/mL)
Numbers only, in µg/mL.

Query :: Entry "Cc1ccc(NC(=O)[C@H]2CCCN(C(=O)c3c(C)cccc3F)[C@H]2c2ccc(NC3CCCC3)cc2)cc1C(F)(F)F" : reported solubility = ?
Result :: 0.656

---

assay: Pharmacokinetics of solid solution capsules in dogs; details: male, beagle, dog, in vivo, po, 20 mg, PO 20 mg/dog, capsule in 100% macrogol-40-glycerol hydroxystearate, trial T1
quantity_kind: AUC(0-t)
Show the value, then the unit it is measured in.

Query :: Entry "Cc1ccc(NC(=O)[C@H]2CCCN(C(=O)c3c(C)cccc3F)[C@H]2c2ccc(NC3CCCC3)cc2)cc1C(F)(F)F" : reported AUC(0-t) = ?
Result :: 2470 ng·h/mL

---

experiment: Pharmacokinetics of solid solution capsules in dogs; settings: male, beagle, dog, in vivo, po, 20 mg, PO 20 mg/dog, capsule in 50:50 macrogol-40-glycerol hydroxystearate:PEG-4000, trial T1
quantity_kind: Tmax (h)
One number for each entry, in h.

Query :: Entry "Cc1ccc(NC(=O)[C@H]2CCCN(C(=O)c3c(C)cccc3F)[C@H]2c2ccc(NC3CCCC3)cc2)cc1C(F)(F)F" : reported Tmax = ?
Result :: 1
